This section presents molecules with their documented ActivX EphB2 values.
target: EphB2 (Homo sapiens (Human), UniProt P29323); test: ActivX kinase profiling; format: binding
Sequence (P29323 19-1055): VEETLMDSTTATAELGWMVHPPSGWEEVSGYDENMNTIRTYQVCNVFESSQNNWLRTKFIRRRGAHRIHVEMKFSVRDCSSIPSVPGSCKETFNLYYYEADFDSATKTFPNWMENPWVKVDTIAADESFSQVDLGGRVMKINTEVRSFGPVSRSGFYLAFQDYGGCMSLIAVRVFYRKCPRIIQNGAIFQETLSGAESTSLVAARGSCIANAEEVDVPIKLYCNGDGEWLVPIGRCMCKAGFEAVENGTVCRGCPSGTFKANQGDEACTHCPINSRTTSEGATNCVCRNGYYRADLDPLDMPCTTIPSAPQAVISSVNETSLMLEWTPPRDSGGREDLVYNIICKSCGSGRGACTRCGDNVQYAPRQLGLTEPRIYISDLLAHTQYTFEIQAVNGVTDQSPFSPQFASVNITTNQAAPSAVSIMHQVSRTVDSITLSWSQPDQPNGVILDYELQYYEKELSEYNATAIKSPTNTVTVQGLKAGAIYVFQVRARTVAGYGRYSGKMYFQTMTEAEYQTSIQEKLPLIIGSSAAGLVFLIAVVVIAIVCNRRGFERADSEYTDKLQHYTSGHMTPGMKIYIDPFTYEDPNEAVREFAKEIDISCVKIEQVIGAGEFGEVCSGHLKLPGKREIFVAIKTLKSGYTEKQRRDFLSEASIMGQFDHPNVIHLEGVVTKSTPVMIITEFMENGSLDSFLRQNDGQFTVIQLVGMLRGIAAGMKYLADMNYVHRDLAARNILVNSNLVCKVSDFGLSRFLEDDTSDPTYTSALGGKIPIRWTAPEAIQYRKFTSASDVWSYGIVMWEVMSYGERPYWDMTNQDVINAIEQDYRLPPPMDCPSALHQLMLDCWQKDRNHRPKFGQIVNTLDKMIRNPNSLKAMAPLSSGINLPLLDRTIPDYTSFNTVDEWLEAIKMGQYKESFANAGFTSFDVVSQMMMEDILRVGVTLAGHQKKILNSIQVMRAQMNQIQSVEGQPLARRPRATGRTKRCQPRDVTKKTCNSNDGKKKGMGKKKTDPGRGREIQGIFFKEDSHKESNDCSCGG
Keep the answer to the number alone.

Completed entries (count: 2):
I'd like to know its ActivX EphB2. The molecule in question is COc1cc(C(=O)N2CCC(N3CCN(C)CC3)CC2)ccc1Nc1ncc2c(n1)-c1ccccc1N(C1CCOCC1)C(=O)N2 [XMD16-128]
4.5

I'd like to know its ActivX EphB2. The molecule in question is O=C1Nc2ccccc2-c2nc(Nc3ccc(N4CCC(O)CC4)cc3)ncc2N1 [XMD16-95]
97.2

Here's the next entry for you.
I'd like to know its ActivX EphB2. The molecule in question is O=C1Nc2cnc(Nc3ccc(N4CCC(O)CC4)cc3)nc2-c2ccccc2N1Cc1c(Cl)cccc1Cl [XMD16-101-2]
0.6
